Source listed as ChEMBL document CHEMBL4673389.

system: Protein cereblon (Homo sapiens, UniProt Q96SW2)
Sequence (Q96SW2 whole entry, the tested form may be a part): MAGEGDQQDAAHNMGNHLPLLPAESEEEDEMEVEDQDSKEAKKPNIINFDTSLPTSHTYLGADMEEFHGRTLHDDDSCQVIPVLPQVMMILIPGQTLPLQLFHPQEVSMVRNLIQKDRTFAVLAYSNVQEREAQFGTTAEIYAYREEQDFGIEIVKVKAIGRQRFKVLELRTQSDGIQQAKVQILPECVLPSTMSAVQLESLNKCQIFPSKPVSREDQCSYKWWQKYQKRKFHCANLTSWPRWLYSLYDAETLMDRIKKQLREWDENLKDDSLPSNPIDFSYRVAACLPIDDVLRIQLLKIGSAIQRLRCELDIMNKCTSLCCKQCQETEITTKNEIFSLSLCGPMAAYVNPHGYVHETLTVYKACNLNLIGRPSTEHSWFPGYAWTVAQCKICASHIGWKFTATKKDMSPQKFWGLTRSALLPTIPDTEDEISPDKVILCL
method-summary: Binding affinity to human CRBN-thalidomide binding domain expressed in Escherichia coli by measuring baseline corrected normalized fluorescence by MST based assay
quantity-measured: pKi
The scale used: pKi is minus the common logarithm of the concentration in molar units.

Ask: API: value(readout=pKi, system=Protein cereblon (Homo sapiens, UniProt Q96SW2)) for record `O=C1CNC(=S)N1`
Result: 3.77

Ask: API: value(readout=pKi, system=Protein cereblon (Homo sapiens, UniProt Q96SW2)) for record `COc1c(-c2ccc3cc(NS(C)(=O)=O)ccc3c2)cc(-n2ccc(=O)[nH]c2=O)cc1C(C)(C)C`
Result: 5.33

Okay, now this compound:
Ask: API: value(readout=pKi, system=Protein cereblon (Homo sapiens, UniProt Q96SW2)) for record O=C1CCC(=O)N1 [SUCCINIMIDE]
Result: 5.09
